target: Sphingosine kinase 1 (Homo sapiens); settings: at 1 µM;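 also: mean SPHK1 inhibition value reported from the GSK PKIS kinase panel screen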
Listed next: entries and their corresponding inhibition.
Measure name: inhibition (%)

>>> df
                                smiles_text  meas_value
0  CCn1c(-c2nonc2N)nc2c(C#CCN)ncc(OCCCN)c21       -2.44
1  Fc1ccc(-c2ncn(C3CCNCC3)c2-c2ccnc(Oc3ccccc3)n2)cc1       -1.73
2  Cc1cc(-c2ccco2)cc(C)c1/C=C/c1cncc(-c2nn[nH]n2)c1       -1.08
3  CCn1c(-c2nonc2N)nc2c(C#CC(C)(C)O)ncc(OC[C@@H]3CCCN3)c21        1.85
4  NC(=O)c1sc(-n2cnc3cc(C(F)(F)F)ccc32)cc1OCc1ccccc1Br        0.07

---

molecular target: Fibroblast growth factor receptor 3 (Homo sapiens); details: at 1 µM;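 also: values reported are mean percent inhibition of FGFR3 activity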
Listed next: entries and their corresponding inhibition.
Measure name: inhibition (%)

>>> df
                                smiles_text  measure_name  unit_text  meas_value
0  CCn1c(-c2nonc2N)nc2c(C#CC(C)(C)O)ncc(OC[C@@H]3CCCN3)c21    inhibition          %        0.67
1  Cc1cc(-c2ccco2)cc(C)c1/C=C/c1cncc(-c2nn[nH]n2)c1    inhibition          %        3.17
2  COc1cccc(-n2ncc3c(N/N=C/c4ccncc4)ncnc32)c1    inhibition          %        11.9
3  CCn1c(-c2nonc2N)nc2c(C#CC(C)(C)O)ncc(OCC3CCNCC3)c21    inhibition          %       -1.22
4  NC(=O)c1sc(-n2cnc3cc(C(F)(F)F)ccc32)cc1OCc1ccccc1Br    inhibition          %        2.38
5  NS(=O)(=O)c1ccc(-c2ccc3c(NC(=O)C4CC4)n[nH]c3c2)cc1    inhibition          %        5.72
6  Fc1ccc(-c2ncn(C3CCNCC3)c2-c2ccnc(Oc3ccccc3)n2)cc1    inhibition          %       -4.55

---

target: 5'-AMP-activated protein kinase catalytic subunit alpha-2 (Homo sapiens); details: at 0.1 µM;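 also: mean inhibition measured on the AMPK complex of alpha2, beta1 and gamma1 subunits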
Description: GSK_PKIS: AMPKA2 (A2B1G1) mean inhibition at 0.1 uM [Nanosyn]
Listed next: entries and their corresponding inhibition.
Measure name: inhibition (%)

In [3]: df
Out[3]:
                                smiles_text  unit_text  meas_value
0  CCn1c(-c2nonc2N)nc2c(C#CC(C)(C)O)ncc(OCC3CCNCC3)c21          %        3.32
1  CCn1c(-c2nonc2N)nc2c(C#CC(C)(C)O)ncc(OC[C@@H]3CCCN3)c21          %        0.91
2  CCn1c(-c2nonc2N)nc2c(C#CC(C)(C)O)nc(O[C@@H](CN)c3ccccc3)cc21          %        24.6
3  COc1cccc(-n2ncc3c(N/N=C/c4ccncc4)ncnc32)c1          %        2.26
4  Cc1cc(-c2ccco2)cc(C)c1/C=C/c1cncc(-c2nn[nH]n2)c1          %        0.25
5  COc1cc2c(cc1Nc1nc(Nc3ccsc3C(N)=O)c3cc[nH]c3n1)N(C(=O)CN(C)C)CCC2          %        0.93
6            Nc1nonc1-c1nc2cnccc2n1C1CCCCC1          %        -0.2
